# RUN DESCRIPTION: AUC (0 to 24 hrs) in human epithelial lining fluid at 50th AUC percentile curve
# Format: ADME, tissue-based
# Parameters: time < 24 hr
PARAMETER: AUC(0-t) at 24 h

// query Field request: AUC(0-t) at 24 h | item: CN(C)c1cc(NC(=O)CNC(C)(C)C)c(O)c2c1C[C@H]1C[C@H]3[C@H](N(C)C)C(O)=C(C(N)=O)C(=O)[C@@]3(O)C(O)=C1C2=O [TIGECYCLINE]
// result 9030 ng·h/mL

----------
# RUN DESCRIPTION: AUC (0 to 24 hrs) in human colon wall tissue at 75th AUC percentile curve
# Format: ADME, tissue-based
# Set-up: time < 24 hr
PARAMETER: AUC(0-t) at 24 h (ng·h/mL)
Numeric only. Scale: ng·h/mL

// query Field request: AUC(0-t) at 24 h | item: `CN(C)c1cc(NC(=O)CNC(C)(C)C)c(O)c2c1C[C@H]1C[C@H]3[C@H](N(C)C)C(O)=C(C(N)=O)C(=O)[C@@]3(O)C(O)=C1C2=O`
// result 30400
